Biological target: T1, PtSHL Y148A (Populus trichocarpa)
T1 chain: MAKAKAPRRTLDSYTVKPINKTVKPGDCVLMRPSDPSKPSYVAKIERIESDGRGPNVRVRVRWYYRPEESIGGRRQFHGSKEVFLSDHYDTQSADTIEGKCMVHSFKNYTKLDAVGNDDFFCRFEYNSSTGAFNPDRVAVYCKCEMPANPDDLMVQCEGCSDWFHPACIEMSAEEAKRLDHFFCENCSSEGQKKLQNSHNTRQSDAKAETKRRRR
Assay: ITC
No end group written: not given here. Me3 = trimethyl-lysine
Metric: pKd
// pKd: -log10(molar conc.)

Dear colleague, I am looking for the recorded pKd of the following binder: ARTK(Me3)QTARKSTGGKAY [H3(1-15)K4me3 peptide with an additional C-terminal tyrosine (ITC)]
4.36
